System: female adult Tetranychus urticae Koch
Experiment: Miticidal effect on adult Tetranychus urticae Koch (Phaseolus leaf dip)
Type: in vivo
Conditions: 500 ppm, leaf immersion, 25° C., five days after treatment
Protocol: The stem part of a Phaseolus seedling with one fresh first leaf remaining thereon was inserted in a test tube (a volume of 50 ml) containing water, where 15 female adult Tetranychus urticae Koch per one leaf was then inoculated. […] Five days after the treatment, the number of the female adult Tetranychus urticae Koch was counted on the Phaseolus leave, to calculate the adult death ratio (%) based on the above results. […]
Task for the reader: assign each of the following molecules its reported Adult death ratio (%).
Provide the reading as a plain figure in %.

[Q] Given the entry Cc1nn(C)c(C(=O)NC(C)c2ccc(-c3ccccc3)cc2)c1Br (stereo not shown) , report its measured Adult death ratio (%).
[A] 15

[Q] Given the entry CCCCCc1ccc(-c2ccc(CNC(=O)c3cc(CC)nn3C)cc2)cc1 , report its measured Adult death ratio (%).
[A] 100

[Q] Given the entry Cn1nc2c(c1C(=O)NCc1ccc(-c3ccc(OC(F)(F)F)cc3)cc1)CCCC2 , report its measured Adult death ratio (%).
[A] 100

[Q] Given the entry CCc1cc(C(=O)NCc2ccc(-c3ccc(OC(F)F)cc3)cc2)n(C)n1 , report its measured Adult death ratio (%).
[A] 100
